Target: T1, PUF4 RNA-binding domain (Saccharomyces cerevisiae, UniProt P25339 537-888)
T1 sequence: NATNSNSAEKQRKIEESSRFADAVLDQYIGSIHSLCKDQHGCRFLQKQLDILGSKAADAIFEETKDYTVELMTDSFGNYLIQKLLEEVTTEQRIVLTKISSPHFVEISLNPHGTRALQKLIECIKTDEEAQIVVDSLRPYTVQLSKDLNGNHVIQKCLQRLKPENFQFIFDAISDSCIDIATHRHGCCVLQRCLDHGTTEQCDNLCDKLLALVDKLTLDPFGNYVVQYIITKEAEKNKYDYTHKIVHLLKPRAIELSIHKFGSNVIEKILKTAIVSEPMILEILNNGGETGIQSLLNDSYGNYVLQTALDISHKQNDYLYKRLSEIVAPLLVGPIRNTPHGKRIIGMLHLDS
Assay: Mg; RNA-MaP; 20 mM Na-HEPES pH 7.4, 30 mM KOAc, 0.75 mM MgCl2, 0.1% Tween-20, 5% glycerol, 0.1 mg/mL BSA, 2 mM DTT; 25 C; 0.0125-409.6 nM protein
Conditions: tags: N-His6-TEV cleaved; C-SNAP kept, Cy3B-labelled; label: tethered on chip by stalled RNA polymerase
Measured Kd determines class: band A (below 20 nM), band B (20 nM to below 600 nM), band C (600 nM or more)

Observe how each entry below is paired with its result.
Binder	Label
Ic_S4_P5E.1_K5.1_C5.1_H5.1_A5.1_[T6C]_[A7G]_F5.1_[T8G]_T5.1 (ssRNA) RNA: UUUGACAACUGAUCGUUCUUUCUUGUAUCGGUAUUCUUUCUCGAUCAGUUGUCUUU	band B
Ib_S4_P5E.1_K5.1_C5.1_H5.1_A5.1_[T6A]_F5.1_[T8A]_T5.1 (ssRNA) RNA: UUUGACAACUGAUCGUUCUUUCUUGUAUAAAUAUUCUUUCUCGAUCAGUUGUCUUU	band A
UCUCUUCGUGUAUUAUUAAGUCUCUU (ssRNA) [Id_ii_S1_P5E.2_K5.1_C5.2_[T-1G]_H5.1_A5.1_F5.1_T5.2_[T11A]_[A12G]]	band A
UCUCUUUGUAACACCUUCUCUU (ssRNA) [Ic_S1_P5E.1_K5.1_C5.1_H5.1_A5.1_[T5A]_[T6C]_F5.1_[T8C]_[T9C]_[A10T]_T5.1]	band C
UCUCUUUGUACUGCAUCUCUU (ssRNA) [Ic_S1_P4E.1_K4.1_C4.1_H4.1_A4.1_[T5C]_[A6T]_[T7G]_F4.1_[T8C]_T4.1]	band C

Hey, which category is UCUCUUCAUGUAUAUAACUCUCUU (ssRNA) [Id_ii_S1_P3E.2_K3.1_C3.2_[T-1A]_H3.1_A3.1_F3.1_T3.2_[T9A]_[A10C]] in, do you know?
band A
